- Tested on: SK-MEL-2 melanoma
- assay remarks: NCI tumour cell line growth inhibition, 48 h; in the data active = GI50 below about 0.43 µM; inactive = the rest
Respond only with the outcome that fits, drawn from 1 (active), 0 (inactive)

Query: Any idea what this test logged for COc1c/c(=C2\C=c3ccccc3=N2)[nH]/c1=C\c1[nH]c(C)cc1C ?
Result: 1

====

- System: SF-539 CNS
- assay remarks: NCI tumour cell line growth inhibition, 48 h
readout name: GI50

Here is how some compounds turned out for GI50.
compound | readout name | result
C=CN(C(=O)N1CCN(c2cc3c(cc2F)c(=O)c(C(=O)O)cn3C2CC2)CC1)c1nc(-c2ccc(OC)cc2)cs1 | GI50 | 2800 nM
COc1ccc(C(=O)C(CN(C)C)CN(C)C)cc1 | GI50 | 7600 nM
COc1ccc2c(c1)C(=O)c1c-2n(CCCN(C)C)c(=O)c2ccccc12 | GI50 | 282 nM
CC(C)C[C@H](NC(=O)CNC(=O)c1cc(Cl)ccc1Cl)B(O)O | GI50 | < 12.5 nM
Cc1cnc2n1S(=O)(=O)c1cc(C(=O)Nc3cccc4nsnc34)c(Cl)cc1S2 | GI50 | 23400 nM

Could you tell me GI50 for each of these compounds? They are listed below.
1. CC1Cc2c(Cl)ncnc2N(C)c2ccc(Cl)cc21 (centres undefined)
2. O=C(CSc1nc2c(n1Nc1ccccc1)-c1ccccc1SC2)Nc1nc(-c2ccc(Cl)cc2)cs1
3. COc1cc2c(cc1OC(C)C)[C@H](c1ccc(Cl)cc1)N(c1ccc(N(C)CC3CCC(N4CCN(C)C(=O)C4)CC3)cc1)C(=O)C2 (some centres undefined)
4. COc1cc(/C=C/c2cc(/C=C/c3ccc(O)c(OC)c3)n(C(=O)c3ccc(Cl)cc3)n2)ccc1O

Result:
1: 513 nM; 2: 25800 nM; 3: 1640 nM; 4: 1240 nM

====

- Test system: RPMI-8226 leukemia
- assay remarks: NCI tumour cell line growth inhibition, 48 h
Where a SMILES comes first, the peptide text is derived from it. Bridges are numbered along the chain shown (N, C = ends). [ ]: non-standard residue; d: D form. Aib = CC(C)(N)C(=O)O; βAla = NCCC(=O)O
readout name: TGI

compound | TGI
CC1(C)NC(=O)C(NC(=O)C(N)CC(=O)O)CCCCNC(=O)CCNC1=O (stereo not given) (H-DK[Aib][βAla]; lactam 2-C; configuration not given here) | > 100 µM

Could you tell me TGI for each of these compounds? They are listed below.
1. CCn1cc2c(=O)n3ncn(-c4ccc(Br)cc4)c3nc2n1
2. Cc1onc(-c2ccccc2)c1C(=O)N/N=C/c1cc(Cl)cc(Cl)c1O
3. O=C(C(=O)c1cc2ccccc2[nH]1)c1cc2ccccc2[nH]1
4. CNC(=O)c1c(C)oc2cc(Oc3ncnc4cc(OC)c(OC)cc34)ccc12

Result:
1: > 100 µM; 2: 49.7 µM; 3: > 110 µM; 4: > 100 µM

====

- Test system: LOX IMVI melanoma
- assay remarks: NCI tumour cell line growth inhibition, 48 h; in the data active = GI50 below about 0.43 µM; inactive = the rest
Respond only with the outcome that fits, drawn from active, inactive

Field: example entries. Status: answers known.
molecule | category label
CC(C)(C)C(=O)OCOP(=O)(NCc1ccccc1)C1CCCN(O)C1=O (configuration not stated) | inactive
COc1cc2c(cc1OC(C)C)[C@H](c1ccc(Cl)cc1)N(c1ccc(N(C)CC3CCC(N4CCN(C)C(=O)C4)CC3)cc1)C(=O)C2 (some centres not stated) | inactive
Cc1cnc2n1S(=O)(=O)c1cc(C(=O)Nc3cccc4nsnc34)c(Cl)cc1S2 | inactive

Query: Any idea what this test logged for COc1ccc2c(c1)C(=O)c1c-2n(CCCN(C)C)c(=O)c2ccccc12 ?
Result: active

Query: Try this molecule next: Cc1ccc(O)c(NC(=O)c2cccc(Nc3ccnc(C(F)(F)F)c3)c2)c1
Result: inactive

Query: Try this molecule next: O=C1NC(=C(Cl)Cl)/C(=N/S(=O)(=O)N2CCCCC2)N1
Result: inactive

Query: Try this molecule next: COc1ccc(/C=C\c2cc(OC)c(OC)c(OC)c2)cc1OCC(=O)Nc1nc2ccc(F)cc2s1
Result: inactive
